Data credit: patent US20250171534A1

Overview of recorded EC50 for various binders
- tested_on: T1, human LILRB2 expressed on cells (human, UniProt Q8N423 22-597)
- T1 construct: In 293T cells it was expressed from pCMV3-LILRB2-GFP; also called CHO-LILRB2; Jurkat-LILRB2
- assay_summary: flow cytometry, CHO-LILRB2 cells
Express the result in µg/mL but write the number alone.

Here's what some known entries look like.
Anti-LILRB2 antibody 1E1(QE) (antibody, human IgG4 S228P, lambda, V domains shown) VH: EVQLQQWGAGLLKPSETLSLTCAVYGGSFSGYYWSWIRQPPGKGLEWIGEINHSGSTNYNPSLKSRVTISVDTSKNQFSLKLSSVTAADTAVYYCARLPTRWVTTRYFDLWGRGTLVTVSS VL: ESVLTQPPSVSGAPGQRVTISCTGSSSNIGAGYDVHWYQQLPGTAPKLLIYGNSNRPSGVPDRFSVSKSGASASLAITGLQAEDEADYYCQSFDNSLSAYVFGGGTQLTVLG    0.042
#28 (antibody, human IgG1, V domains shown, also called D2M002-028) VH: EVQLQQSGAELMKPGASVKISCKATGYTFSSYWIEWVKQRPGHGLEWIGEILPGSGSTNYNEKFKGKATFTADTSSNTAYMQLSSLTSEDSAVYYCARSGAGGYDSGAFAYWGQGTLVTVSS VL: DIVMTQSPASLAVSLGQRATISCRASESVDTYGNSFMHWYQQKPGQPPKLLIYRTSNLESGIPARFSGSGSRTDFTLTINPVEADDVATYYCQQSNEDPWTFGGGTKLEIK    0.836
#1 (antibody, human IgG1, V domains shown, also called D2M002-001) VH: EVQLQQSGPELVKPGASVKMSCKASGYTFTRYVMHWVKQKPGQGLEWIGYINPNNDGTKYNEKFKGKVTLTSDKSSSTAYMELSSLTSEDSAVYYCARGDLEILPYYDHARNAMDYWGQGTSVTVSS VL: DIVMTQSPASQSASLGESVIITCRASGNIHNYLAWYQQKQGKSPQLLVYNAKTLADGVPSRFSGSGSGTQYSLKINSLQPEDFGTYYCQHFWSSPPTFGGGTKLELK    0.033

Please look at this binder and report its EC50: #21 (antibody, human IgG1, V domains shown, also called D2M002-021) VH: QVQLQQSGAELMKPGASVKISCKATGSTFSSYWIEWVKQRPGHGLEWIGEILPGSGSTNYNEKFKGKATFTADTSSNTAYMQLSSLTSEDSAVYYCARSGAGGYDSGAFAYWGQGTLVTVSA VL: DIVLTQSPASLAVSLGQRATISCRASESVDTYGNSFMHWYQQKPGQPPKLLIYRTSNLESGIPARFSGSGSRTDFTLTINPVEADDVATYYCQQSNEDPWTFGGGTKLEIK
0.894
